System: 855422-203-R-J1-PDC complex spheroid viability
experimental-details: Anticancer human tumor 855422-203-R-J1-PDC patient-derived bladder carcinoma cell line growth inhibition [POLQ]; active = viability on the fitted dose curve at most 10% of control; inactive = the rest
condition-details: second compound 0.0316 µM; first compound 0.1 µM
Entry note: the call must match one of T = active, F = inactive

INSERT INTO assay_data (compound, assigned_category) VALUES
  ('CCCS(=O)(=O)Nc1ccc(F)c(C(=O)c2c[nH]c3ncc(-c4ccc(Cl)cc4)cc23)c1F + Nc1ccc(C#CCN(C(=O)Cc2ncc(C(F)(F)F)cc2C(F)(F)F)c2ccc(F)cc2)nn1', 'F'),
  ('CC1COCCN1c1cc(-c2ccnn2C)c2ccnc(-c3ccn[nH]3)c2n1 (stereo not given) + COC1C(OC(N)=O)C(O)C(Oc2ccc3c(O)c(NC(=O)c4ccc(O)c(CC=C(C)C)c4)c(=O)oc3c2C)OC1(C)C', 'F'),
  ('CCc1c2c(nc3ccc(O)cc13)-c1cc3c(c(=O)n1C2)COC(=O)[C@]3(O)CC + Nc1ccc(C#CCN(C(=O)Cc2ncc(C(F)(F)F)cc2C(F)(F)F)c2ccc(F)cc2)nn1', 'T'),
  ('CCc1c2c(nc3ccc(O)cc13)-c1cc3c(c(=O)n1C2)COC(=O)[C@]3(O)CC + Cc1cccc(N(C)C(=O)C2C(O)CCN2c2nc(C)cc(C(F)(F)F)c2C#N)c1', 'T');

Next, consider the following compound.
I would be grateful if you could indicate the recorded call for C#Cc1c(F)ccc2cc(O)cc(-c3ncc4c(N5CC6CCC(C5)N6)nc(OCC56CCCN5CC(F)C6)nc4c3F)c12 (stereo not given) + Nc1ccc(C#CCN(C(=O)Cc2ncc(C(F)(F)F)cc2C(F)(F)F)c2ccc(F)cc2)nn1 .
F

====

Test system: 855422-203-R-J1-PDC complex spheroid viability
experimental-details: Anticancer human tumor 855422-203-R-J1-PDC cell line growth inhibition [POLQ];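 also: spheroids exposed to compounds for seven days before readout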
condition-details: curve of first compound; second compound 1 µM
Please respond with reported IC50 for every item in the list.

Worked set:
INSERT INTO measurements (compound, tgt, result) VALUES
  ('CNCc1ccc(-c2[nH]c3cc(F)cc4c3c2CCNC4=O)cc1 + Cc1cccc(N(C)C(=O)C2C(O)CCN2c2nc(C)cc(C(F)(F)F)c2C#N)c1', '855422-203-R-J1-PDC complex spheroid viability', '> 10 µM'),
  ('COc1cccc2c1C(=O)c1c(O)c3c(c(O)c1C2=O)CC(O)(C(=O)CO)CC3OC1CC(N)C(O)C(C)O1 (stereo unspecified) + Cc1cccc(N(C)C(=O)C2C(O)CCN2c2nc(C)cc(C(F)(F)F)c2C#N)c1', '855422-203-R-J1-PDC complex spheroid viability', '< 0.0316 µM'),
  ('CNCc1ccc(-c2[nH]c3cc(F)cc4c3c2CCNC4=O)cc1 + COC1C(OC(N)=O)C(O)C(Oc2ccc3c(O)c(NC(=O)c4ccc(O)c(CC=C(C)C)c4)c(=O)oc3c2C)OC1(C)C', '855422-203-R-J1-PDC complex spheroid viability', '> 10 µM'),
  ('CC(C)n1c(=O)n(C)c2cnc3cc(F)c(-c4ccc(OCCCN5CCCCC5)nc4)cc3c21 + Cc1cccc(N(C)C(=O)C2C(O)CCN2c2nc(C)cc(C(F)(F)F)c2C#N)c1', '855422-203-R-J1-PDC complex spheroid viability', '> 10 µM');

For each of the compounds below, note its IC50.
1. COc1cccc(OCCCN)c1-c1cc(Nc2cnc(C#N)cn2)n[nH]1 + Cc1cccc(N(C)C(=O)C2C(O)CCN2c2nc(C)cc(C(F)(F)F)c2C#N)c1
2. COc1ccc([C@@H](O)c2cc(-c3ncnc4cc(N5CCOCC5)ccc34)c(F)cc2Cl)nn1 + Nc1ccc(C#CCN(C(=O)Cc2ncc(C(F)(F)F)cc2C(F)(F)F)c2ccc(F)cc2)nn1

1: 0.0247 µM; 2: > 10 µM
